Where do these numbers come from? They come from ChEMBL document CHEMBL1201862.

System: SF-295
Test: NCI tumour cell line growth inhibition, 48 h
Active and inactive are the calls of the source. Cut-off read from the data, not from the text of the source: active = GI50 up to about 1.1 µM and inactive = higher.
quantity.kind: GI50

Given item `COc1cc(OC)c(/C=C\c2ccnc3ccccc23)c(OC)c1` , the value recorded as its GI50 is 2.53 µM (inactive)

Given item `CC1=CC(=O)c2ccc3c4ccccc4n(C)c3c2C1=O` , the value recorded as its GI50 is > 54.5 µM (inactive)

Given item `O=C(O)CSc1nnc(-c2ccccc2O)[nH]1` , the value recorded as its GI50 is > 100 µM (inactive)

Given item `CN(C(=O)c1ccco1)C(=S)N1CCN(c2ccccc2)CC1` , the value recorded as its GI50 is > 100 µM (inactive)

Given item `NC(=O)c1ccc(C(=O)Nc2ccc([As](=O)(O)O)cc2)cc1` , the value recorded as its GI50 is > 100 µM (inactive)

Given item `Cc1c(-c2cc(-c3ccccc3)n[nH]c2=O)c2ccccc2n1C` , the value recorded as its GI50 is > 100 µM (inactive)

Given item `Cc1ccc(C(=O)C#Cc2cnc(O)nc2O)cc1` , the value recorded as its GI50 is 29.2 µM (inactive)

Given item `COc1ccc(CCCC(=O)O)c(C)c1` , the value recorded as its GI50 is 38.8 µM (inactive)

Given item C=CCC1C(=O)CC2(C)CC(=O)C(CC=C)C12C (stereo not given) , the value recorded as its GI50 is > 100 µM (inactive)

Given item `CCOC(=O)c1c2ccc(/C=C/c3ccccc3)ccc-2c(C(=O)OCC)c1N` , the value recorded as its GI50 is > 100 µM (inactive)
